# experimental-system: WIZ (Homo sapiens, UniProt O95785+Q96SW2)
# Construct: expressed in transfected cells
# Sequence (O95785 whole entry): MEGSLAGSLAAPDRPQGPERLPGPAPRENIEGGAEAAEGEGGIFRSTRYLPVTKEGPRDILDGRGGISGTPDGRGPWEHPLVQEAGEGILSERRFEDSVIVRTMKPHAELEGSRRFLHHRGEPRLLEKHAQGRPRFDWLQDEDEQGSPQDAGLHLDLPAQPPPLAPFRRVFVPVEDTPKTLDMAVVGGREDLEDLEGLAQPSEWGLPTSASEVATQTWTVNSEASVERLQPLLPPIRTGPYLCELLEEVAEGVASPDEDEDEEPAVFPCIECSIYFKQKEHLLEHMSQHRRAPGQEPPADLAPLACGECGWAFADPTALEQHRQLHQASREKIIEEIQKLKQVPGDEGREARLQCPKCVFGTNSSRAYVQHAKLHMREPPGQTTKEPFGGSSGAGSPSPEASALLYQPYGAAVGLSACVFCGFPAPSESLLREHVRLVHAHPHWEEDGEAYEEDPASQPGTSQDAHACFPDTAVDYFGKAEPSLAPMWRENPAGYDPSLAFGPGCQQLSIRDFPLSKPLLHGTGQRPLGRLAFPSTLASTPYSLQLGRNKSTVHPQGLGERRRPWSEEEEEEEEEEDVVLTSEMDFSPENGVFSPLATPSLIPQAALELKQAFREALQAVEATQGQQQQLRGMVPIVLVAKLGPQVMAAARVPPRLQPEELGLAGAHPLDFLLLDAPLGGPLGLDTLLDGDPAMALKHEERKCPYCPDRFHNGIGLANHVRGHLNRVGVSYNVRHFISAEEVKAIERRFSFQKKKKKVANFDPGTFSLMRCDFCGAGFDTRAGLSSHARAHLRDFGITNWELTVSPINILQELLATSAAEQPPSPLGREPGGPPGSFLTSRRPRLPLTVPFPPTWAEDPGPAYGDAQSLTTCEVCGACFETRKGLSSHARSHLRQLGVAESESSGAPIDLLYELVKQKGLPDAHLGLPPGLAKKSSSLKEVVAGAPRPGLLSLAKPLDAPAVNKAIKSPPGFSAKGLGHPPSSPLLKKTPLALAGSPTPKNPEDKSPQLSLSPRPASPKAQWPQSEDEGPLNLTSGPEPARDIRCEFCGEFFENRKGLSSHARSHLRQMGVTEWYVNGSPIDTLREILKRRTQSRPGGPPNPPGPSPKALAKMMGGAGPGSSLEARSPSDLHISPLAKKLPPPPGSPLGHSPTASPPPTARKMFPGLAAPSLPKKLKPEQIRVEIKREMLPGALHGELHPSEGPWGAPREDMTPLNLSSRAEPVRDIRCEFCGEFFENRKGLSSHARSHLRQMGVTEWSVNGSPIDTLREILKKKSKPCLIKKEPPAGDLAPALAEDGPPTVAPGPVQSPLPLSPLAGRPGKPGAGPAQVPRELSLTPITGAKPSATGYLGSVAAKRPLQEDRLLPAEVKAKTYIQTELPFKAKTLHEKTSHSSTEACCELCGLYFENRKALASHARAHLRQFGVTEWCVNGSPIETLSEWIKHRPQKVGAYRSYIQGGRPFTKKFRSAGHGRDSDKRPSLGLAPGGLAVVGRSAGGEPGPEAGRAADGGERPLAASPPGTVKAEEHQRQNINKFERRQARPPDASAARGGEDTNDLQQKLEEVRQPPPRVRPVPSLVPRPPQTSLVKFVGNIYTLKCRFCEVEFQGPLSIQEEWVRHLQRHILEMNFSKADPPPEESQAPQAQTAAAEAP
# Sequence (Q96SW2 whole entry): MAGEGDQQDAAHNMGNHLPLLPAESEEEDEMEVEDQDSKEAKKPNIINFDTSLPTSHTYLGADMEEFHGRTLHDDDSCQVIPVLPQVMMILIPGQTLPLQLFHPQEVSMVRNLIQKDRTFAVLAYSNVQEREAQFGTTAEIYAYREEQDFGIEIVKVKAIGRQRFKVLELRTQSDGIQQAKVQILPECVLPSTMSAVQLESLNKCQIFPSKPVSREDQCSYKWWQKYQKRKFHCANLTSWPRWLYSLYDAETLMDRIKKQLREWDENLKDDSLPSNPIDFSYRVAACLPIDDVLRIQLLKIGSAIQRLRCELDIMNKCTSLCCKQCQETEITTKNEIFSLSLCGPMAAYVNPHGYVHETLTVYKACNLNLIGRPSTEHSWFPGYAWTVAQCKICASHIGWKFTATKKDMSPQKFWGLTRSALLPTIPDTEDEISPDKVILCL
# Sequence (Q16531 whole entry partner): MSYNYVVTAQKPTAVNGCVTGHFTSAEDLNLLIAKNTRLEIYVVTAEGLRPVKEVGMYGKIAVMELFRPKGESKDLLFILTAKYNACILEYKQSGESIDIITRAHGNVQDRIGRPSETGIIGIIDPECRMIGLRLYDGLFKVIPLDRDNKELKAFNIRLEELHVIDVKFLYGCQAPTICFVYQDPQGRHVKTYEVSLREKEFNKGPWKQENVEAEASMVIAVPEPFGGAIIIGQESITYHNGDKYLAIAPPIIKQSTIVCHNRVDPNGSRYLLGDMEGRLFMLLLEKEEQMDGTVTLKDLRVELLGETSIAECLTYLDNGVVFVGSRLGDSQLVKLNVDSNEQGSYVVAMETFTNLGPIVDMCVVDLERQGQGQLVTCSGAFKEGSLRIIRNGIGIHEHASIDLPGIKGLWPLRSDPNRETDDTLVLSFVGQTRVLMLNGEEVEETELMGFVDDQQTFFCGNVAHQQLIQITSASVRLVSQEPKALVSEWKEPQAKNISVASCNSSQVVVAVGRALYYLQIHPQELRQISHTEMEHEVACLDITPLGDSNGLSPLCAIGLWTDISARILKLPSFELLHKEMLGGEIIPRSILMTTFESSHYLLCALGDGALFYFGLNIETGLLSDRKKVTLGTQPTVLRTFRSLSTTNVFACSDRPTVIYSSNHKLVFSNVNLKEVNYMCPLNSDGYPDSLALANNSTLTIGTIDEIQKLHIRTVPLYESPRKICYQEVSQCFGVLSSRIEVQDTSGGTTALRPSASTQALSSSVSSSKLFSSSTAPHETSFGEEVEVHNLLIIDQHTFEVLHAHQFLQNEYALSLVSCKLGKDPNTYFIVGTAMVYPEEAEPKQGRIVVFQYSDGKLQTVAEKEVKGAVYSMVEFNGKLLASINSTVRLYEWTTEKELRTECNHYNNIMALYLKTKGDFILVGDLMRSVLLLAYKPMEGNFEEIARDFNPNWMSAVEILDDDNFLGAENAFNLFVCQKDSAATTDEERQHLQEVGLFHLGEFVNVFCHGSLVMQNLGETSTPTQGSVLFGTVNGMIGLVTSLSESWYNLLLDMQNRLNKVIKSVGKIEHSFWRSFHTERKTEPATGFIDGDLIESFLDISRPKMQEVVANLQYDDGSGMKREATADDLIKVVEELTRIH
# assay-explanation: Quantification of WIZ protein levels in HiBit tag fusion protein assay (293T cells)
# Format: cell-based
# measurement-conditions: WIZ HiBit assay in 293T cells, about 18 hours, 10-point 5-fold dilution, top 25 μM; read-out: WIZ AC50
Returns: string. Value is label 1 if measured DC50 is below 2 nM, and label 0 if it is greater than or equal to it.

- compound: "CCN1CC[C@@H](F)[C@@H](Oc2ccc3c(c2)CN(C2CCC(=O)NC2=O)C3=O)C1 (relative stereo)"
  discrete-label: "label 0"
- compound: "CCN1CCC(C)(C)C(Oc2ccc3c(c2)CN(C2CCC(=O)NC2=O)C3=O)C1 (single isomer, unassigned) [Example 49]"
  discrete-label: "label 0"
- compound: "CC(C)N1CCC[C@@H](Oc2ccc3c(c2)CN(C2CCC(=O)NC2=O)C3=O)C1 (some centres unmarked)"
  discrete-label: "label 0"
- compound: "CCN1C[C@@H]2C[C@@H]2[C@H](Oc2ccc3c(c2)CN(C2CCC(=O)NC2=O)C3=O)C1 (relative stereo)"
  discrete-label: "label 0"
- compound: "CCN1CCC(C)(C)C(Oc2ccc3c(c2)CN(C2CCC(=O)NC2=O)C3=O)C1 (single isomer, unassigned) [Example 48]"
  discrete-label: "label 0"
- compound: "CCN1CCC[C@H](Oc2ccc3c(c2)CN(C2CCC(=O)NC2=O)C3=O)C1 (some centres unmarked)"
  discrete-label: "label 0"
- compound: "O=C1CCC(N2Cc3cc(O[C@@H]4CCCN(CC5CCC(F)(F)CC5)C4)ccc3C2=O)C(=O)N1 (some centres unmarked)"
  discrete-label: "label 0"
- compound: "CCN1C[C@H](C)C[C@@H](Oc2ccc3c(c2)CN(C2CCC(=O)NC2=O)C3=O)C1 (mixture of isomers) [Example 75-1]"
  discrete-label: "label 1"
- compound: "CC[C@H](C)N1CCC(C)(C)C(Oc2ccc3c(c2)CN(C2CCC(=O)NC2=O)C3=O)C1 (single isomer, unassigned) [Example 50]"
  discrete-label: "label 0"
- compound: "CCN1CC(Oc2ccc3c(c2)CN(C2CCC(=O)NC2=O)C3=O)CC2(CC2)C1 (single isomer, unassigned) [Example 19]"
  discrete-label: "label 0"
- compound: "CCC[C@H]1CC[C@@H](Oc2ccc3c(c2)CN(C2CCC(=O)NC2=O)C3=O)CN1 (some centres unmarked)"
  discrete-label: "label 0"
- compound: "CCC[C@H]1CC[C@@H](Oc2ccc3c(c2)CN(C2CCC(=O)NC2=O)C3=O)CN1CC (some centres unmarked)"
  discrete-label: "label 1"
- compound: "CCN1C[C@H](OC)C[C@@H](Oc2ccc3c(c2)CN(C2CCC(=O)NC2=O)C3=O)C1 (single isomer, unassigned) [Example 65-2]"
  discrete-label: "label 1"
